Sourced from paper PMC7072484

Some molecules, each annotated with its measured IC50.
- system tested: CYP2B6 (Homo sapiens, UniProt P20813)
- Construct: native enzyme in pooled human liver microsomes (200 donors, male and female; Sekisui XenoTech), isoform-selective P450-Glo CYP2B6 kit
- Sequence (P20813 whole entry, canonical isoform): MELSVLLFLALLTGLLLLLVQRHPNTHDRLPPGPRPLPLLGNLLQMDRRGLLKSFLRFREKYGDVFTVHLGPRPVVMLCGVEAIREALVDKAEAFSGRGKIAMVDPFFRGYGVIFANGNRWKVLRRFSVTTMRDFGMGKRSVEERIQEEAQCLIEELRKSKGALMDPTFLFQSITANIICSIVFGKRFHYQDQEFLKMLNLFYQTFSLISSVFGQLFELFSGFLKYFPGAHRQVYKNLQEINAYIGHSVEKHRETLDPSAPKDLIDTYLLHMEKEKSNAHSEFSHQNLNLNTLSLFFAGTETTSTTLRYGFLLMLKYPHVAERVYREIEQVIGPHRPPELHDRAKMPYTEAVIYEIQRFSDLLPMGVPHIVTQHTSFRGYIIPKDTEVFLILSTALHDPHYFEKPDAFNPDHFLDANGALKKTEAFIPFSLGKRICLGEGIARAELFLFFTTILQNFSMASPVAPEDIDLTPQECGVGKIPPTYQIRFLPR
- assay overview: P450-Glo luminescence inhibition assay
- Format: biochemical
property name: IC50

• O=c1c(O)c(-c2ccc(O)cc2)oc2cc(O)cc(O)c12 = > 600 µM
• C[C@@H]1CC[C@H]2[C@@H](C)C(=O)O[C@@H]3O[C@@]4(C)CC[C@@H]1[C@]32O4 = 111 µM
• COc1cc2oc(-c3ccc(O)c(O)c3)c(OC)c(=O)c2c(O)c1OC = 52.1 µM
• O=c1c(O)c(-c2ccc(O)c(O)c2)oc2cc(O)cc(O)c12 = 19.9 µM
